assay: Water solubility of UV protection dyes
measured-endpoint: WATER SOLUBILITY (mg/mL)

compound	measured-endpoint	result
Nc1cc(N)c(S(=O)(=O)[O-])cc1N=Nc1cc([N+](=O)[O-])ccc1O.[Na+] [Mordant Brown 33]	WATER SOLUBILITY	20

A. CCN(CC)c1ccc(N=Nc2ccc(S(=O)(=O)[O-])cc2)cc1.[K+] [Ethyl Orange]
B. Nc1cc(N)c(N=Nc2cc([N+](=O)[O-])cc([N+](=O)[O-])c2O)cc1Cl [Mordant Brown 48]
C. CC(=O)Nc1ccc2nc3c4ccccc4c(=N)cc-3oc2c1.Cl [Darrow Red]
*Q* Given 3 compounds, produce a descending ranking by WATER SOLUBILITY. Sort the labels as requested; that list is your answer.
*A* A, B, C
(A: 100 mg/mL, B: 40 mg/mL, C: 1 mg/mL)

1. O=S(=O)([O-])c1ccc2c(N=Nc3ccccc3)c(O)ccc2c1.[Na+] [Crocein Orange G]
2. Cc1nn(-c2ccccc2)c([O-])c1N=Nc1cc([N+](=O)[O-])cc(S(=O)(=O)[O-])c1[O-].[Cr+3].[Na+].[OH-] [Acid Orange 74]
3. Cc1cc(N=Nc2ccc(C)c(N=Nc3cc(C)c(N)cc3N)c2)c(N)cc1N [Bismark Brown R]
4. CCN(CC)c1ccc(N=Nc2ccccc2C(=O)O)cc1 [Ethyl Red]
*Q* Rank ascending by WATER SOLUBILITY. Put the labels in the requested order and write them down.
*A* 4, 2, 1, 3

----------
assay: Water solubility of UV protection dyes
measured-endpoint: WATER SOLUBILITY (mg/mL)

molecule	WATER SOLUBILITY [mg/mL]
Cc1cc(N=Nc2cc([N+](=O)[O-])cc([N+](=O)[O-])c2O)c(N)cc1N	60
Nc1cc(N)c(N=Nc2cccc3c(S(=O)(=O)O)cccc23)cc1N=Nc1cc([N+](=O)[O-])ccc1O.[Na]	60
Nc1ccc(N=Nc2cccc(N=Nc3ccc(N)cc3N)c2)c(N)c1	50
O=S1(=O)OC(c2ccc(O)c(Cl)c2)(c2ccc(O)c(Cl)c2)c2ccccc21	60
CC1=NN(c2ccc(S(=O)(=O)[O-])cc2)C(=O)C1N=Nc1ccc(-c2ccc(N=Nc3ccc(OS(=O)(=O)c4ccc(C)cc4)cc3)c(S(=O)(=O)[O-])c2)cc1.[Na+].[Na+] (stereo not drawn)	50
Cc1cc(O)ccc1C1(c2ccc(O)cc2C)OS(=O)(=O)c2ccccc21	2

Provenance of the data: patent US20080318788A1
